Target: T1, dimeric human LTBR-Fc biotinylated (P1AE2401) (human, UniProt P36941 31-227, biotinylated in vitro)
T1 construct: bought from R&D Systems (7538-LR); also called human LTBR ECD; not shown: human IgG1 Fc-Fragment
Assay: direct ELISA
Recorded max. binding (OD) by entry
result.type: max. binding (OD)

binder="P1AE9452 (antibody, human IgG1, kappa, L234A L235A, V domains shown, human IgG1 PG LALA; from transgenic rabbit immunization; also called LTBR (9452)) VH: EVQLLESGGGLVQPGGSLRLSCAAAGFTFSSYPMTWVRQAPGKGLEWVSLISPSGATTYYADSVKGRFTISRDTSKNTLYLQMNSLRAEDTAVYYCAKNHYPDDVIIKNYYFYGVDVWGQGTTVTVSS VL: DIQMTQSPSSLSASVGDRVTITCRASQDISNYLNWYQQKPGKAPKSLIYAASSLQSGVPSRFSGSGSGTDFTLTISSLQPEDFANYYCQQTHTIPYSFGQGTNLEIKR" obs_value=3.3
binder="P1AE1873 (CBE11) (antibody, human IgG1, kappa, L234A L235A, V domains shown) VH: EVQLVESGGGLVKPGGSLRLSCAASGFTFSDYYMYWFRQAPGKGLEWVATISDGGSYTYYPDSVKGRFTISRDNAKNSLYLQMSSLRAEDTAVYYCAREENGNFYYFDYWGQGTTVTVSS VL: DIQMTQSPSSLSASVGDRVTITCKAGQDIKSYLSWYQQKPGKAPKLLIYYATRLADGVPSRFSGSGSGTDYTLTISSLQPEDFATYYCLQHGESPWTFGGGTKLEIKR" obs_value=3.21
